assay: Metabolic stability in human hepatic microsome; type: in vitro ADME; conditions: human, microsomes, pH 7.4, CL NADPH(+)
Starred links: 1 amine or outer side, 2 acyl side, 3 side chain; linkers in the order of their positions; H or OH if unused. Positions of bridges follow the written chain, without caps; N, C: chain ends. Non-standard residues stand in square brackets, D forms with d. Residues, ends and D or L forms follow the SMILES beside them. *: point of attachment. NMeF = CN[C@@H](Cc1ccccc1)C(=O)O; NMeGABA = CN(CCCC(=O)[*:2])[*:1]; NMeI = CC[C@H](C)[C@H](NC)C(=O)O; NMeL = CN[C@@H](CC(C)C)C(=O)O; NMeV = CN[C@H](C(=O)O)C(C)C; NMeA = CN[C@@H](C)C(=O)O; Piperidide = C1CCN(*)CC1; dNMeA = CN[C@H](C)C(=O)O; Sar = CNCC(=O)O; tBu = CC(C)(C)*

molecule	microsomal CLint at 1 uM / µL/min/mg
CC[C@H](C)[C@@H]1NC(=O)[C@H](CC(C)C)N(C)C(=O)[C@H](C)NC(=O)CCCN(C)C(=O)C[C@@H](C(=O)N2CCCCC2)NC(=O)[C@H]([C@@H](C)O)NC(=O)[C@H](Cc2ccccc2)NC(=O)[C@H](C(C)C)N(C)C(=O)[C@H](CC(C)C)N(C)C(=O)[C@H](Cc2ccccc2)N(C)C1=O [DP-121] ([NMeGABA]A[NMeL]I[NMeF][NMeL][NMeV]FTD-Piperidide; lactam N-10)	46
CC[C@H](C)[C@H]1C(=O)NCC(=O)N[C@H](C(=O)N2CCCCC2)CC(=O)N(C)[C@H](C)C(=O)N[C@@H](Cc2ccccc2)C(=O)N(C)[C@@H](CC(C)C)C(=O)N[C@@H](COC(C)(C)C)C(=O)N[C@@H](Cc2ccccc2)C(=O)N2CCC[C@H]2C(=O)N[C@@H]([C@@H](C)O)C(=O)N[C@@H](CC(C)C)C(=O)N(C)[C@@H](C)C(=O)N1C [DP-62] ([dNMeA]F[NMeL]S(tBu)FPTL[NMeA][NMeI]GD-Piperidide; lactam N-12)	22
CC(C)C[C@H]1C(=O)N(C)[C@@H](Cc2ccccc2)C(=O)N[C@@H](C)C(=O)N2CCC[C@H]2C(=O)N(C)[C@@H](CC(C)C)C(=O)N(C)[C@@H](Cc2ccccc2)C(=O)N(C)[C@@H](C(C)C)C(=O)N[C@H](C(=O)N2CCCCC2)CC(=O)N[C@H](C(C)C)C(=O)N[C@@H]([C@@H](C)O)C(=O)N(C)CC(=O)N1C [DP-66] ([dV]T[Sar][NMeL][NMeF]AP[NMeL][NMeF][NMeV]D-Piperidide; lactam N-11)	69

---

test: Metabolic stability in human hepatic microsome; format: in vitro ADME; settings: microsomes, pH 7.4; human hepatic microsome, NADPH(+); read-out: CL NADPH(+)
Positions of bridges follow the written chain, without caps; N, C: chain ends. Non-standard residues stand in square brackets, D forms with d. Residues, ends and D or L forms follow the SMILES beside them. *: point of attachment. NMeF = CN[C@@H](Cc1ccccc1)C(=O)O; NMeL = CN[C@@H](CC(C)C)C(=O)O; NMeV = CN[C@H](C(=O)O)C(C)C; NMeA = CN[C@@H](C)C(=O)O; Piperidide = C1CCN(*)CC1; Sar = CNCC(=O)O

compound	microsomal CLint at 1 uM [µL/min/mg]
CC[C@H](C)[C@@H]1NC(=O)[C@H](C)N(C)C(=O)CN(C)C(=O)C[C@@H](C(=O)N2CCCCC2)NC(=O)[C@H](CC(C)C)N(C)C(=O)[C@H](C)N(C)C(=O)[C@H](Cc2ccccc2)N(C)C(=O)[C@H]([C@@H](C)O)NC(=O)[C@H](Cc2ccccc2)N(C)C(=O)[C@H](CC(C)C)N(C)C1=O [DP-519] ([Sar][NMeA]I[NMeL][NMeF]T[NMeF][NMeA][NMeL]D-Piperidide; lactam N-10)	157
CC[C@H](C)[C@@H]1NC(=O)[C@H]([C@@H](C)O)NC(=O)[C@H](CC(C)C)NC(=O)[C@H](Cc2ccccc2)NC(=O)[C@H](CC(C)C)NC(=O)[C@H](C)NC(=O)C[C@@H](C(=O)N2CCCCC2)NC(=O)[C@H](Cc2ccccc2)NC(=O)[C@H](CC(C)C)NC(=O)[C@H](Cc2ccccc2)N(C)C1=O [DP-329] (ALFLTI[NMeF]LFD-Piperidide; lactam N-10)	66
CC(C)[C@@H]1NC(=O)[C@H](C)N(C)C(=O)[C@H](C)N(C)C(=O)[C@H](Cc2ccccc2)N(C)C(=O)CNC(=O)[C@H]([C@@H](C)O)NC(=O)[C@H](C(C)C)N(C)C(=O)[C@H](C)NC(=O)[C@H](C)N(C)C(=O)C[C@@H](C(=O)N(C)[C@@H](Cc2ccccc2)C(=O)N(C)[C@@H](Cc2ccccc2)C(=O)N[C@@H](C)C(=O)N2CCCCC2)NC1=O [DP-457] ([NMeA]A[NMeV]TG[NMeF][NMeA][NMeA]VD[NMeF][NMeF]A-Piperidide; lactam N-10)	14
